From: paper PMC12655527

- procedure-text: Pharmacokinetic parameters (Tmax, AUClast, Cmax) of DD217 in phase II trial patients
- Assay type: in vivo, human (patients undergoing knee replacement surgery)
- condition-label: human, plasma, im, 60 mg; CYP3A *1/*3, IM (n = 2); mean ± SD; read-out: Cmax
- Method: The design, eligibility criteria, and outcomes of the phase II clinical trial evaluating the safety and tolerability of DD217 (NCT05189002, ClinicalTrials.gov) have been described previously. […] To characterize the pharmacokinetic profile of DD217 in our study, three parameters were assessed: Cmax, Tmax, and AUClast.
metric: Cmax (ng/mL)
The answer is to be given in ng/mL; state only the numeric part.

Which measured Cmax value corresponds to CC(=N)N(C)c1ccc(C(=O)Nc2ccc(C)cc2C(=O)Nc2ccc(Cl)cn2)cc1.Cl [DD217] ?
11.9

* * *

- procedure-text: Pharmacokinetic parameters (Tmax, AUClast, Cmax) of DD217 in phase II trial patients
- Format: in vivo, human (patients undergoing knee replacement surgery)
- condition-label: human, plasma, oral, 40 mg/day; ABCB1 rs2032582 G>T, G/T (n 6); read-out: AUClast (SD)
metric: AUC(0-t) (ng·h/mL)
The answer is to be given in ng·h/mL; state only the numeric part.

Which measured AUC(0-t) value corresponds to CC(=N)N(C)c1ccc(C(=O)Nc2ccc(C)cc2C(=O)Nc2ccc(Cl)cn2)cc1.Cl ?
46.4

* * *

- procedure-text: Pharmacokinetic parameters (Tmax, AUClast, Cmax) of DD217 in phase II trial patients
- Type: in vivo, human (patients undergoing knee replacement surgery)
- condition-label: human, plasma, oral, 60 mg; CYP2C8 rs10509681 T/T (n 16); read-out: Cmax (SD)
- Protocol: The design, eligibility criteria, and outcomes of the phase II clinical trial evaluating the safety and tolerability of DD217 (NCT05189002, ClinicalTrials.gov) have been described previously. […] To characterize the pharmacokinetic profile of DD217 in our study, three parameters were assessed: Cmax, Tmax, and AUClast.
metric: Cmax (ng/mL)
The answer is to be given in ng/mL; state only the numeric part.

Which measured Cmax value corresponds to CC(=N)N(C)c1ccc(C(=O)Nc2ccc(C)cc2C(=O)Nc2ccc(Cl)cn2)cc1.Cl ?
6.11

* * *

- procedure-text: Pharmacokinetic parameters (Tmax, AUClast, Cmax) of DD217 in phase II trial patients
- Type: in vivo, human (patients undergoing knee replacement surgery)
- condition-label: human, plasma, oral, 60 mg; CYP2C19 *1/*17, RM (n = 6); mean ± SD; read-out: Tmax
metric: Tmax
Returns: string containing the numeric result and its unit.

Which measured Tmax value corresponds to CC(=N)N(C)c1ccc(C(=O)Nc2ccc(C)cc2C(=O)Nc2ccc(Cl)cn2)cc1.Cl ?
9.17 h

* * *

- procedure-text: Pharmacokinetic parameters (Tmax, AUClast, Cmax) of DD217 in phase II trial patients
- Format: in vivo, human (patients undergoing knee replacement surgery)
- condition-label: human, plasma, oral, 40 mg/day; ABCB1 rs4148738 C>T, C/C (n 2); read-out: Tmax (SD)
metric: Tmax (h)
The answer is to be given in h; state only the numeric part.

Which measured Tmax value corresponds to CC(=N)N(C)c1ccc(C(=O)Nc2ccc(C)cc2C(=O)Nc2ccc(Cl)cn2)cc1.Cl ?
3

* * *

- procedure-text: Pharmacokinetic parameters (Tmax, AUClast, Cmax) of DD217 in phase II trial patients
- Assay type: in vivo, human (patients undergoing knee replacement surgery)
- condition-label: human, plasma, oral, 60 mg; CYP3A *1/*1, EM (n = 16); mean ± SD; read-out: Tmax
metric: Tmax (h)
The answer is to be given in h; state only the numeric part.

Which measured Tmax value corresponds to CC(=N)N(C)c1ccc(C(=O)Nc2ccc(C)cc2C(=O)Nc2ccc(Cl)cn2)cc1.Cl ?
9.75

* * *

- procedure-text: Pharmacokinetic parameters (Tmax, AUClast, Cmax) of DD217 in phase II trial patients
- Type: in vivo, human (patients undergoing knee replacement surgery)
- condition-label: human, plasma, oral, 40 mg; CYP2C19 *1/*1, NM (n = 6); mean ± SD; read-out: Tmax
metric: Tmax (h)
The answer is to be given in h; state only the numeric part.

Which measured Tmax value corresponds to CC(=N)N(C)c1ccc(C(=O)Nc2ccc(C)cc2C(=O)Nc2ccc(Cl)cn2)cc1.Cl ?
15.5

* * *

- procedure-text: Pharmacokinetic parameters (Tmax, AUClast, Cmax) of DD217 in phase II trial patients
- Type: in vivo, human (patients undergoing knee replacement surgery)
- condition-label: human, plasma, oral, 40 mg; CYP2C19 *1/*17, *17/*17, RM + UM (n = 9); mean ± SD; read-out: Tmax
- Protocol: The design, eligibility criteria, and outcomes of the phase II clinical trial evaluating the safety and tolerability of DD217 (NCT05189002, ClinicalTrials.gov) have been described previously. […] To characterize the pharmacokinetic profile of DD217 in our study, three parameters were assessed: Cmax, Tmax, and AUClast.
metric: Tmax
Returns: string containing the numeric result and its unit.

Which measured Tmax value corresponds to CC(=N)N(C)c1ccc(C(=O)Nc2ccc(C)cc2C(=O)Nc2ccc(Cl)cn2)cc1.Cl ?
7.67 h

* * *

- procedure-text: Pharmacokinetic parameters (Tmax, AUClast, Cmax) of DD217 in phase II trial patients
- Type: in vivo, human (patients undergoing knee replacement surgery)
- condition-label: human, plasma, oral, 40 mg/day; ABCB1 rs1128503 T>C, C/C (n 8); read-out: AUClast (SD)
- Protocol: The design, eligibility criteria, and outcomes of the phase II clinical trial evaluating the safety and tolerability of DD217 (NCT05189002, ClinicalTrials.gov) have been described previously. […] To characterize the pharmacokinetic profile of DD217 in our study, three parameters were assessed: Cmax, Tmax, and AUClast.
metric: AUC(0-t) (ng·h/mL)
The answer is to be given in ng·h/mL; state only the numeric part.

Which measured AUC(0-t) value corresponds to CC(=N)N(C)c1ccc(C(=O)Nc2ccc(C)cc2C(=O)Nc2ccc(Cl)cn2)cc1.Cl ?
34.6

* * *

- procedure-text: Pharmacokinetic parameters (Tmax, AUClast, Cmax) of DD217 in phase II trial patients
- Assay type: in vivo, human (patients undergoing knee replacement surgery)
- condition-label: human, plasma, oral, 40 mg/day; ABCB1 rs1045642 T>C, T/C (n 7); read-out: Cmax (SD)
metric: Cmax (ng/mL)
The answer is to be given in ng/mL; state only the numeric part.

Which measured Cmax value corresponds to CC(=N)N(C)c1ccc(C(=O)Nc2ccc(C)cc2C(=O)Nc2ccc(Cl)cn2)cc1.Cl ?
8.03

* * *

- procedure-text: Pharmacokinetic parameters (Tmax, AUClast, Cmax) of DD217 in phase II trial patients
- Type: in vivo, human (patients undergoing knee replacement surgery)
- condition-label: human, plasma, oral, 60 mg; CYP2C9 *1/*1, NM (n = 11); mean ± SD; read-out: AUClast
metric: AUC(0-t) (ng·h/mL)
The answer is to be given in ng·h/mL; state only the numeric part.

Which measured AUC(0-t) value corresponds to CC(=N)N(C)c1ccc(C(=O)Nc2ccc(C)cc2C(=O)Nc2ccc(Cl)cn2)cc1.Cl ?
37.5

* * *

- procedure-text: Pharmacokinetic parameters (Tmax, AUClast, Cmax) of DD217 in phase II trial patients
- Type: in vivo, human (patients undergoing knee replacement surgery)
- condition-label: human, plasma, oral, 60 mg; CYP2C19 *1/*1, NM (n = 8); mean ± SD; read-out: Tmax
metric: Tmax
Returns: string containing the numeric result and its unit.

Which measured Tmax value corresponds to CC(=N)N(C)c1ccc(C(=O)Nc2ccc(C)cc2C(=O)Nc2ccc(Cl)cn2)cc1.Cl [DD217] ?
8.75 h

* * *

- procedure-text: Pharmacokinetic parameters (Tmax, AUClast, Cmax) of DD217 in phase II trial patients
- Format: in vivo, human (patients undergoing knee replacement surgery)
- condition-label: human, plasma, oral, 40 mg/day; ABCB1 rs1045642 T>C, C/C (n 5); read-out: Cmax (SD)
metric: Cmax (ng/mL)
The answer is to be given in ng/mL; state only the numeric part.

Which measured Cmax value corresponds to CC(=N)N(C)c1ccc(C(=O)Nc2ccc(C)cc2C(=O)Nc2ccc(Cl)cn2)cc1.Cl [DD217] ?
2.42

* * *

- procedure-text: Pharmacokinetic parameters (Tmax, AUClast, Cmax) of DD217 in phase II trial patients
- Type: in vivo, human (patients undergoing knee replacement surgery)
- condition-label: human, plasma, oral, 60 mg/day; ABCB1 rs1128503 T/T (n 4); read-out: Tmax (SD)
metric: Tmax (h)
The answer is to be given in h; state only the numeric part.

Which measured Tmax value corresponds to CC(=N)N(C)c1ccc(C(=O)Nc2ccc(C)cc2C(=O)Nc2ccc(Cl)cn2)cc1.Cl ?
16.2

* * *

- procedure-text: Pharmacokinetic parameters (Tmax, AUClast, Cmax) of DD217 in phase II trial patients
- Format: in vivo, human (patients undergoing knee replacement surgery)
- condition-label: human, plasma, oral, 60 mg/day; ABCB1 rs4148738 C/C (n 5); read-out: AUClast (SD)
metric: AUC(0-t) (ng·h/mL)
The answer is to be given in ng·h/mL; state only the numeric part.

Which measured AUC(0-t) value corresponds to CC(=N)N(C)c1ccc(C(=O)Nc2ccc(C)cc2C(=O)Nc2ccc(Cl)cn2)cc1.Cl ?
18.9
